Read-out: Transforming Growth Factor (TGFB1), TGFB1 (gene 7040)
Experiment Summary: LTEA_HepaRG_TGFB1: Life Technologies and Expression Analysis (LTEA) Assay for Transforming Growth Factor (TGFB1) Transporter using HepaRG (AID 2283533)
Assay Context: mRNA level, 48 h; actives raise or lower the signal
Description: LTEA_HepaRG is a cell based, multiplexed-readout assay that uses HepaRG, a human liver cell line, with measurements taken at 48 hours after chemical dosing on a 96-well plate.LTEA_HepaRG_TGFB1 is one of 102 assay component(s) measured in the LTEA HepaRG cell culture assay. It is a marker of Cell proliferation, survival, death.Data from the assay component LTEA_HepaRG_TGFB1 was analyzed into 1 endpoint. […]
The source made the active and inactive calls. The calls were made as follows: active = hit-call score of the fitted dose curve at least 0.9, where 1 is the maximum; inactive = score below 0.9.
Outcome codes: active, inactive

INSERT INTO results (compound, assigned_class) VALUES
  ('CN(C)N=O', 'inactive'),
  ('C=CC(=O)OCCCCCC(C)C', 'inactive'),
  ('CCOP(=S)(OCC)SCSP(=S)(OCC)OCC', 'inactive'),
  ('CC(C)(C)c1cc(O)ccc1O', 'inactive'),
  ('C=C(C)C(=O)[O][Sn]([CH2]CCC)([CH2]CCC)[CH2]CCC', 'active'),
  ('ClC1(Cl)C2(Cl)C3(Cl)C4(Cl)C(Cl)(Cl)C5(Cl)C3(Cl)C1(Cl)C5(Cl)C24Cl (centres undefined)', 'inactive'),
  ('CC(C)(C)CC(C)(C)c1ccc(O)cc1', 'inactive'),
  ('O=C(Nc1ccc2[nH]ccc2c1)c1cc2cc(F)ccc2n1Cc1cccc(F)c1', 'inactive'),
  ('CCCCCCCCc1ccc(O)cc1', 'inactive'),
  ('CCOP(=S)(OCC)Oc1nc(Cl)c(Cl)cc1Cl', 'inactive'),
  ('O=c1[nH]c(=O)[nH]c(=O)[nH]1', 'inactive'),
  ('CC12CC1(C)C(=O)N(c1cc(Cl)cc(Cl)c1)C2=O (centres undefined)', 'inactive'),
  ('C[C@@H]1C[C@@H]([C@H](O)CC2CC(=O)NC(=O)C2)C(=O)[C@@H](C)C1', 'inactive'),
  ('ClCC(Cl)CCl', 'inactive'),
  ('CCC(C)(C)c1ccc(O)c(C(C)(C)CC)c1', 'inactive'),
  ('COc1cc(-c2ccc(N)c(OC)c2)ccc1N', 'inactive'),
  ('CCN1CCC2(CC1)COc1cc3c(cc12)N(C(=O)c1ccc(-c2ccc(-c4nnc(C)o4)cc2C)cc1)CC3', 'active'),
  ('CCC(=O)C(CC(C)N(C)C)(c1ccccc1)c1ccccc1 (centres undefined)', 'inactive'),
  ('O=C1C2(Cl)C3(Cl)C4(Cl)C(Cl)(Cl)C5(Cl)C3(Cl)C1(Cl)C5(Cl)C24Cl (centres undefined)', 'active');
